Target: partially purified bovine lens aldose reductase (Bos taurus)
Construct: partially purified bovine lens aldose reductase; from tissue; host or cells: bovine lens
Assay: Inhibitory activity on aldose reductase enzyme reaction
Format: biochemical
Settings: concentration 1.0 μg/ml
readout.type: inhibition at 1 µg/mL (%)
Answer with a number only, understood to be in %.

Recorded inhibition at 1 µg/mL (compound CC(C)CCOc1ccc(CCC(=O)O)cc1-c1cc(CCC(=O)O)ccc1O [Example 12] ): 89.1

Recorded inhibition at 1 µg/mL (compound O=C(O)CCc1ccc(O)c(-c2cc(CCC(=O)O)ccc2OCc2ccc(Br)cc2F)c1 [Example 2] ): 89.1

Recorded inhibition at 1 µg/mL (compound O=C(O)CCc1ccc(O)c(-c2cc(CCC(=O)O)ccc2OCC2CCCCO2)c1 (stereo not drawn) [Example 4] ): 88.2

Recorded inhibition at 1 µg/mL (compound O=C(O)CCCOc1ccc(CCC(=O)O)cc1-c1cc(CCC(=O)O)ccc1O [Example 13] ): 95.2

Recorded inhibition at 1 µg/mL (compound O=C(O)CCc1ccc(O)c(-c2cc(CCC(=O)O)ccc2OCCc2ccccc2)c1 [Example 14] ): 90.5

###

Biological target: partially purified bovine lens aldose reductase (Bos taurus, UniProt P16116)
Construct: partially purified bovine lens aldose reductase; from tissue; host or cells: bovine lens
Assay: Inhibitory activity on aldose reductase enzyme reaction
Format: biochemical
Conditions: concentration 0.02 μg/ml
readout.type: inhibition at 0.02 µg/mL (%)
Answer with a number only, understood to be in %.

Here's what some known entries look like.
Case O=C(O)CCCc1ccc(O)c(-c2cc(CCCC(=O)O)ccc2OCCCCl)c1 [Example 28] , partially purified bovine lens aldose reductase (Bos taurus, UniProt P16116), inhibition at 0.02 µg/mL recorded as 28.8

Case COc1ccc(CCC(=O)O)cc1-c1cc(CCC(=O)O)ccc1O [Example 16] , partially purified bovine lens aldose reductase (Bos taurus, UniProt P16116), inhibition at 0.02 µg/mL recorded as 21.1

Proceed to the following item.
Case CCOc1ccc(CCCC(=O)O)cc1-c1cc(CCCC(=O)O)ccc1O [Example 22] , partially purified bovine lens aldose reductase (Bos taurus, UniProt P16116), inhibition at 0.02 µg/mL recorded as 27.2

###

Target: partially purified bovine lens aldose reductase (Bos taurus, UniProt P16116)
Construct: partially purified bovine lens aldose reductase; from tissue; host or cells: bovine lens
Assay: Inhibitory activity on aldose reductase enzyme reaction
Format: biochemical
Conditions: concentration 1.0 μg/ml
Description: The preparation of aldose reductase and the determination of its inhibitory action on enzyme reaction activity were carried out pursuant to the procedures disclosed by Haymann et al. in Journal of Biological Chemistry, 240, 877 (1965). […]
readout.type: inhibition at 1 µg/mL (%)
Answer with a number only, understood to be in %.

Here's what some known entries look like.
Case CCCCCCCOc1ccc(CCC(=O)O)cc1-c1cc(CCC(=O)O)ccc1O , partially purified bovine lens aldose reductase (Bos taurus, UniProt P16116), inhibition at 1 µg/mL recorded as 91.9

Case CCCOc1ccc(CCC(=O)O)cc1-c1cc(CCC(=O)O)ccc1O , partially purified bovine lens aldose reductase (Bos taurus, UniProt P16116), inhibition at 1 µg/mL recorded as 90

Case O=C(O)CCc1ccc(O)c(-c2cc(CCC(=O)O)ccc2OCC2CCCCC2)c1 , partially purified bovine lens aldose reductase (Bos taurus, UniProt P16116), inhibition at 1 µg/mL recorded as 91.9

Case O=C(O)CCc1ccc(O)c(-c2cc(CCC(=O)O)ccc2OC2CCCCC2)c1 , partially purified bovine lens aldose reductase (Bos taurus, UniProt P16116), inhibition at 1 µg/mL recorded as 89.6

Case CCCCCOc1ccc(CCC(=O)O)cc1-c1cc(CCC(=O)O)ccc1O , partially purified bovine lens aldose reductase (Bos taurus, UniProt P16116), inhibition at 1 µg/mL recorded as 90.9

Case CCCCCCOc1ccc(CCC(=O)O)cc1-c1cc(CCC(=O)O)ccc1O , partially purified bovine lens aldose reductase (Bos taurus, UniProt P16116), inhibition at 1 µg/mL recorded as 91.9

Case CCCCOc1ccc(CCC(=O)O)cc1-c1cc(CCC(=O)O)ccc1O , partially purified bovine lens aldose reductase (Bos taurus, UniProt P16116), inhibition at 1 µg/mL recorded as 90

Case CCCCCCCCCCCOc1ccc(CCC(=O)O)cc1-c1cc(CCC(=O)O)ccc1O , partially purified bovine lens aldose reductase (Bos taurus, UniProt P16116), inhibition at 1 µg/mL recorded as 92.8

---
Case CCCCCCCCOc1ccc(CCC(=O)O)cc1-c1cc(CCC(=O)O)ccc1O , partially purified bovine lens aldose reductase (Bos taurus, UniProt P16116), inhibition at 1 µg/mL recorded as 93.7

Case O=C(O)CCc1ccc(O)c(-c2cc(CCC(=O)O)ccc2OCc2ccccc2)c1 , partially purified bovine lens aldose reductase (Bos taurus, UniProt P16116), inhibition at 1 µg/mL recorded as 92.8
